Hey, just so you know, these numbers are from ChEMBL document CHEMBL1154536.

- Assay Text: Cmax in rat at 10 mg/kg, po
- Assay type: ADME, organism-based
- Set-up: dose 10 mg/kg, route oral
- Conditions: in vivo

Query Smiles	Units Of Measure	Cmax
CNC(=O)c1c(F)cccc1Nc1nc(Nc2cc3c(cc2OC)CCN3C(=O)CN(C)C)nc2[nH]ccc12	ng/mL	365

----------
- Assay Text: Clearance in rat at 2.5 mg/kg, iv and 10 mg/kg, po
- Assay type: ADME, organism-based
- Conditions: in vivo
Parameter: clearance (mL/min/kg)

Query Smiles	Units Of Measure	Measured Value
CNC(=O)c1c(F)cccc1Nc1nc(Nc2cc3c(cc2OC)CCN3C(=O)CN(C)C)nc2[nH]ccc12	mL/min/kg	73
